EXPERIMENT: Cytotoxicity against human TZM-bl cells assessed as reduction in cell viability by CellTiter-Glo 2.0 assay
Format: toxicity, cell-based
SETUP CONDITIONS: TZM-bl cells
Measured CC50 of individual entries

| MOLECULE | CC50 |
| --- | --- |
| N=C(N)NCCCCC(=O)NCCN1CCC(NC(=O)C(=O)Nc2cncc(F)c2)CC12CCCCC2.O=C(O)C(F)(F)F.O=C(O)C(F)(F)F.O=C(O)C(F)(F)F (stereo not drawn) | > 300 µM |
| CC1(C)CC(NC(=O)C(=O)Nc2ccc(Cl)cc2)CC(C)(C)N1 | 177 µM |
| N=C(N)NCCCCC(=O)NCCN1CCC(NC(=O)CNc2ccc(Cl)cn2)CC1.O=C(O)C(F)(F)F.O=C(O)C(F)(F)F.O=C(O)C(F)(F)F | > 300 µM |
